# subjectOfTest: Somatostatin receptor type 3 (Homo sapiens)
# Assay type: functional, cell-based, CHO
# Description: Antagonist activity at human SST3 receptor expressed in CHO cells assessed as inhibition of forskolin/SS-14-stimulated cAMP accumulation preincubated for 15 mins before SS-14 challenge measured after 1 hr by time-resolved fluorescence analysis
measuredAttribute: log10(IC50) (log10 of the value in nM)

- compound: "CC(=O)N1CCC(C2N[C@@H](c3nc(-c4ccccc4)c[nH]3)Cc3c2[nH]c2ccccc32)CC1 (stereo partly specified)"
  subjectOfTest: "Somatostatin receptor type 3 (Homo sapiens)"
  log10(IC50): 1.66
- compound: "[O-][S+]1CCC(C2N[C@@H](c3nc(-c4ccccc4)c[nH]3)Cc3c2[nH]c2ccccc32)CC1 (single isomer, unassigned; isomer 2)"
  subjectOfTest: "Somatostatin receptor type 3 (Homo sapiens)"
  log10(IC50): 1.38
- compound: "CC(C)(C)OC(=O)N1CCC(C2N[C@@H](c3nc(-c4ccccc4)c[nH]3)Cc3c2[nH]c2ccccc32)CC1 (stereo partly specified)"
  subjectOfTest: "Somatostatin receptor type 3 (Homo sapiens)"
  log10(IC50): 3.00
- compound: "c1ccc(-c2c[nH]c([C@H]3Cc4c([nH]c5ccccc45)[C@H](C4CCOCC4)N3)n2)cc1"
  subjectOfTest: "Somatostatin receptor type 3 (Homo sapiens)"
  log10(IC50): 3.08
- compound: "CNC(=O)N1CCC(C2N[C@@H](c3nc(-c4ccccc4)c[nH]3)Cc3c2[nH]c2ccccc32)CC1 (stereo partly specified)"
  subjectOfTest: "Somatostatin receptor type 3 (Homo sapiens)"
  log10(IC50): 2.26
- compound: "c1ccc(-c2c[nH]c([C@H]3Cc4c([nH]c5ccccc45)C(C4CCNCC4)N3)n2)cc1 (stereo partly specified)"
  subjectOfTest: "Somatostatin receptor type 3 (Homo sapiens)"
  log10(IC50): 2.34
- compound: "[O-][S+]1CCC(C2N[C@@H](c3nc(-c4ccccc4)c[nH]3)Cc3c2[nH]c2ccccc32)CC1 (single isomer, unassigned; isomer 1)"
  subjectOfTest: "Somatostatin receptor type 3 (Homo sapiens)"
  log10(IC50): 2.58
- compound: "c1ccc(-c2c[nH]c([C@H]3Cc4c([nH]c5ccccc45)[C@@H](C4CCOCC4)N3)n2)cc1"
  subjectOfTest: "Somatostatin receptor type 3 (Homo sapiens)"
  log10(IC50): 1.34
- compound: "c1ccc(-c2c[nH]c([C@H]3Cc4c([nH]c5ccccc45)C(C4CCSCC4)N3)n2)cc1 (stereo partly specified)"
  subjectOfTest: "Somatostatin receptor type 3 (Homo sapiens)"
  log10(IC50): 1.00
- compound: "O=S1(=O)CCC(C2N[C@@H](c3nc(-c4ccccc4)c[nH]3)Cc3c2[nH]c2ccccc32)CC1 (stereo partly specified)"
  subjectOfTest: "Somatostatin receptor type 3 (Homo sapiens)"
  log10(IC50): 2.46
- compound: "COC(=O)N1CCC(C2N[C@@H](c3nc(-c4ccccc4)c[nH]3)Cc3c2[nH]c2ccccc32)CC1 (stereo partly specified)"
  subjectOfTest: "Somatostatin receptor type 3 (Homo sapiens)"
  log10(IC50): 1.82

###

# subjectOfTest: Somatostatin receptor type 5 (Homo sapiens)
# Sequence (P35346 whole entry): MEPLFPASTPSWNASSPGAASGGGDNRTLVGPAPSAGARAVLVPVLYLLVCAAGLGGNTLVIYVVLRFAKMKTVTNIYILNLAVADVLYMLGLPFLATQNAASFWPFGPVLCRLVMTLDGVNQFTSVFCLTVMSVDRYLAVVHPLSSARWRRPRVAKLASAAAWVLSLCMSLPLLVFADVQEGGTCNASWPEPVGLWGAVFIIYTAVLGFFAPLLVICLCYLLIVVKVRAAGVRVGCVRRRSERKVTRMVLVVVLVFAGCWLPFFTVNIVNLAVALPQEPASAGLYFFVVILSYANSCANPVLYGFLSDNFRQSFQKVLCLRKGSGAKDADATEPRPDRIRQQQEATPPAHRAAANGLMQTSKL
# methodDescription: Binding affinity to human SST5 receptor expressed in CHO cells
pIC50: −log10 of the molar value.
measuredAttribute: pIC50

- smi: "c1ccc(-c2c[nH]c([C@H]3Cc4c([nH]c5ccccc45)[C@@H](C4CCOCC4)N3)n2)cc1"
  resultValue: "< 6.00"

###

# subjectOfTest: Somatostatin receptor type 5 (Mus musculus)
# Sequence (O08858 whole entry): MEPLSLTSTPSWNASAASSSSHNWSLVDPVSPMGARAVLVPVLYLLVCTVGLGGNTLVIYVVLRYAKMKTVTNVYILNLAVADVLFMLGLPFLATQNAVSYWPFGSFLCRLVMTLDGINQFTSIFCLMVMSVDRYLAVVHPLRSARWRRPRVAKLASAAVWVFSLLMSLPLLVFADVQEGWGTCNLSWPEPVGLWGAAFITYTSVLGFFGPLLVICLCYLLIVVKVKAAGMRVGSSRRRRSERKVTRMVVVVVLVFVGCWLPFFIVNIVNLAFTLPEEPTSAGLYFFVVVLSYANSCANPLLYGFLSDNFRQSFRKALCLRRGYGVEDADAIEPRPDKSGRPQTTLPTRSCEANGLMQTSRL
# methodDescription: Binding affinity to mouse SST5 receptor expressed in CHO cells

- smi: "c1ccc(-c2c[nH]c([C@H]3Cc4c([nH]c5ccccc45)[C@@H](C4CCOCC4)N3)n2)cc1"
  IC50: "> 10 µM"

###

# subjectOfTest: Somatostatin receptor type 3 (Homo sapiens, UniProt P32745)
# Sequence (P32745 whole entry): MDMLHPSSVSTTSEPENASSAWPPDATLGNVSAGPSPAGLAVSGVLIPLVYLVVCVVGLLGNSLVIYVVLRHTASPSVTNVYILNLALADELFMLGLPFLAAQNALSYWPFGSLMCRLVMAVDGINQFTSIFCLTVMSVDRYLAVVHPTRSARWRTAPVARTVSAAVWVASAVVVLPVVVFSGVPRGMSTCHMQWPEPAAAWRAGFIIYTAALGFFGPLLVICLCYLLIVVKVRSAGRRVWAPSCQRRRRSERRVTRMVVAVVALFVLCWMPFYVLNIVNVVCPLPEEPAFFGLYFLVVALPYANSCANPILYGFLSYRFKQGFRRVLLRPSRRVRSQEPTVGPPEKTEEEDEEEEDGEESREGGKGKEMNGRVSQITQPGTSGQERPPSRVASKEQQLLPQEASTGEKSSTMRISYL
# methodDescription: Displacement of [125I]SS-14 from human SST3 receptor expressed in CHO cells after 60 mins by scintillation counting
# Format: cell-based
Kindly note that classification relies on IC50 with these boundaries: c1 = under 10 nM, c2 = from 10 nM up to 60 nM, c3 = 60 nM and over

- compound: "CS(=O)(=O)N1CCC(C2N[C@@H](c3nc(-c4ccccc4)c[nH]3)Cc3c2[nH]c2ccccc32)CC1 (some centres not stated)"
  qualitativeLabel: "c2"
- compound: "CC(=O)N1CCC(C2N[C@@H](c3nc(-c4ccccc4)c[nH]3)Cc3c2[nH]c2ccccc32)CC1 (some centres not stated)"
  qualitativeLabel: "c2"
- compound: "COC(=O)N1CCC(C2N[C@@H](c3nc(-c4ccccc4)c[nH]3)Cc3c2[nH]c2ccccc32)CC1 (some centres not stated)"
  qualitativeLabel: "c1"
- compound: "CC(C)(C)OC(=O)N1CCC(C2N[C@@H](c3nc(-c4ccccc4)c[nH]3)Cc3c2[nH]c2ccccc32)CC1 (some centres not stated)"
  qualitativeLabel: "c1"
- compound: "[O-][S+]1CCC(C2N[C@@H](c3nc(-c4ccccc4)c[nH]3)Cc3c2[nH]c2ccccc32)CC1 (single isomer, unassigned; isomer 1)"
  qualitativeLabel: "c3"
- compound: "[O-][S+]1CCC(C2N[C@@H](c3nc(-c4ccccc4)c[nH]3)Cc3c2[nH]c2ccccc32)CC1 (single isomer, unassigned; isomer 2)"
  qualitativeLabel: "c2"
- compound: "c1ccc(-c2c[nH]c([C@H]3Cc4c([nH]c5ccccc45)[C@H](C4CCOCC4)N3)n2)cc1"
  qualitativeLabel: "c3"
- compound: "O=S1(=O)CCC(C2N[C@@H](c3nc(-c4ccccc4)c[nH]3)Cc3c2[nH]c2ccccc32)CC1 (some centres not stated)"
  qualitativeLabel: "c3"
- compound: "c1ccc(-c2c[nH]c([C@H]3Cc4c([nH]c5ccccc45)C(C4CCNCC4)N3)n2)cc1 (some centres not stated)"
  qualitativeLabel: "c3"
- compound: "c1ccc(-c2c[nH]c([C@H]3Cc4c([nH]c5ccccc45)[C@@H](C4CCOCC4)N3)n2)cc1"
  qualitativeLabel: "c2"
- compound: "CNC(=O)N1CCC(C2N[C@@H](c3nc(-c4ccccc4)c[nH]3)Cc3c2[nH]c2ccccc32)CC1 (some centres not stated)"
  qualitativeLabel: "c2"
- compound: "c1ccc(-c2c[nH]c([C@H]3Cc4c([nH]c5ccccc45)C(C4CCSCC4)N3)n2)cc1 (some centres not stated)"
  qualitativeLabel: "c1"

###

# subjectOfTest: Somatostatin receptor type 2 (Homo sapiens, UniProt P30874)
# Sequence (P30874 whole entry): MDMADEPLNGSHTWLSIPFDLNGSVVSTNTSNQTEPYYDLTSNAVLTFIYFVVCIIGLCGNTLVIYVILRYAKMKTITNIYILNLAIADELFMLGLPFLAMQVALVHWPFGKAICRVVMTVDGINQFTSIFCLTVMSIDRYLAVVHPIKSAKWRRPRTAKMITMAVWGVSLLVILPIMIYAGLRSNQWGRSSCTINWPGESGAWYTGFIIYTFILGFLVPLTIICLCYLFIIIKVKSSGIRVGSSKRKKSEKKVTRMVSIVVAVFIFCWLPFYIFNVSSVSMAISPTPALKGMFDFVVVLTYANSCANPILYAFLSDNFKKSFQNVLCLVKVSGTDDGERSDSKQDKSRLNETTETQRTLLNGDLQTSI
# methodDescription: Binding affinity to human SST2 receptor expressed in CHO cells

- smi: "c1ccc(-c2c[nH]c([C@H]3Cc4c([nH]c5ccccc45)[C@@H](C4CCOCC4)N3)n2)cc1"
  subjectOfTest: "Somatostatin receptor type 2 (Homo sapiens, UniProt P30874)"
  IC50: "> 1 µM"

###

# subjectOfTest: Voltage-gated inwardly rectifying potassium channel KCNH2 (Homo sapiens, UniProt Q12809)
# Sequence (Q12809 whole entry): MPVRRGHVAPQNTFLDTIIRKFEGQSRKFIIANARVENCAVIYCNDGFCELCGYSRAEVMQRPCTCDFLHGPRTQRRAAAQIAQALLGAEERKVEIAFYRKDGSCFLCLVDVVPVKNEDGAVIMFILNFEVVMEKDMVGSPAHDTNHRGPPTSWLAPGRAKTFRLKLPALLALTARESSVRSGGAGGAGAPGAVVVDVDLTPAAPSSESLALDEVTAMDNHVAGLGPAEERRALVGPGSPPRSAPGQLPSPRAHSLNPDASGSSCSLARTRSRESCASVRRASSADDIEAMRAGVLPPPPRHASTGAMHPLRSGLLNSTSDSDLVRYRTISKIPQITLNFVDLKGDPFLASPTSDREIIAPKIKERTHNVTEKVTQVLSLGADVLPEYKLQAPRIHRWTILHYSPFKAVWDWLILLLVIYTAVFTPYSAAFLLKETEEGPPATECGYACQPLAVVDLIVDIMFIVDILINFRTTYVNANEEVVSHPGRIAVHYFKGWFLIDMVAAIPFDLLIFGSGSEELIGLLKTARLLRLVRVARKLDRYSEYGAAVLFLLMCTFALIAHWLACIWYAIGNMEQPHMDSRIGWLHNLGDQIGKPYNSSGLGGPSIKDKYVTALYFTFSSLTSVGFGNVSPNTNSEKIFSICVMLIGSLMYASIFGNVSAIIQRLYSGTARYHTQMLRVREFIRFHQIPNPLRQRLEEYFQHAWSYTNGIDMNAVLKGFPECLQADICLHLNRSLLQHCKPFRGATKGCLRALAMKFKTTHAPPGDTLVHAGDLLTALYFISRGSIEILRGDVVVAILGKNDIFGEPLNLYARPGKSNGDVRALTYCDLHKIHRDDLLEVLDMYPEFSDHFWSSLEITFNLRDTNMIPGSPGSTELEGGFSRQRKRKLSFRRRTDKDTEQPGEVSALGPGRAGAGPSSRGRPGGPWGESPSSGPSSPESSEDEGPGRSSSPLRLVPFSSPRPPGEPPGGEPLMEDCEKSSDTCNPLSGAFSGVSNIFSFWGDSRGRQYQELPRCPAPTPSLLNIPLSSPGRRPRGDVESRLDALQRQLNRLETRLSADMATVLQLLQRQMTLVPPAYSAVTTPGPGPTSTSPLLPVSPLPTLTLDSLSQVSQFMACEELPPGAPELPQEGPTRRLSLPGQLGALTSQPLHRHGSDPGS
# methodDescription: Displacement of [35S]MK499 from human Erg expressed in HEK293 cells after 60 mins by scintillation counting

- compound: "O=S1(=O)CCC(C2N[C@@H](c3nc(-c4ccccc4)c[nH]3)Cc3c2[nH]c2ccccc32)CC1 (some centres undefined)"
  IC50 (nM): 100
- compound: "c1ccc(-c2c[nH]c([C@H]3Cc4c([nH]c5ccccc45)C(C4CCSCC4)N3)n2)cc1 (some centres undefined)"
  IC50 (nM): 120
- compound: "CC(=O)N1CCC(C2N[C@@H](c3nc(-c4ccccc4)c[nH]3)Cc3c2[nH]c2ccccc32)CC1 (some centres undefined)"
  IC50 (nM): 9800
- compound: "CNC(=O)N1CCC(C2N[C@@H](c3nc(-c4ccccc4)c[nH]3)Cc3c2[nH]c2ccccc32)CC1 (some centres undefined)"
  IC50 (nM): 240

Data provenance: ChEMBL document CHEMBL2069262
